Test system: RPMI-8226 leukemia
Assay: NCI tumour cell line growth inhibition, 48 h
property: GI50

| compound | result |
| --- | --- |
| CN(C)C/C=C/C(=O)Nc1cc2c(Nc3ccc(F)c(Cl)c3F)ncnc2cc1OCCOC(F)F | 0.921 µM |
| Nc1nc(Cl)cc(OCC2(CO)CC(OCc3ccccc3)C2)n1 (centres undefined) | 26.7 µM |
| Cc1nc([C@H]2CC[C@H]3[C@@H]4CCC5=CC(=O)CC[C@]5(C)[C@H]4CC[C@]23C)cs1 | 0.531 µM |
| CN1C(=O)[C@@H](NC(=O)[C@H](CCC(F)(F)F)[C@H](CCC(F)(F)F)C(N)=O)N=C(c2ccccc2)c2ccccc21 | 58.7 µM |
| COC(=O)c1c(O)c([N+](=O)[O-])cc2c1c1c(n2Cc2ccccc2)C(=O)c2ccccc2C1=O | 2.32 µM |
| OC(COc1ccc(F)cc1)Cn1cnc2c(Cl)ncnc21 (centres undefined) | 39.7 µM |
| C[C@@H]1Cc2c([nH]c3ccccc23)[C@@H](c2c(F)cc(NC3CN(CCCF)C3)cc2F)N1CC(F)(F)CO | 2.82 µM |
| CC#C/C(=N\OC[C@H]1COCCN1)c1ccc2ncnc(Nc3ccc(OCc4cccc(F)c4)c(Cl)c3)c2c1 | 1.66 µM |
| COC1=CC(=O)C(OC)=C(OC)C1=O | 14.7 µM |

====

TGI overview
Tested on: DU-145 prostate
Assay: NCI tumour cell line growth inhibition, 48 h

| compound | TGI |
| --- | --- |
| C=C1c2[nH]c3ccccc3c2C2C(CC)C1CCN2C (stereo not drawn) | > 100 µM |
| CCCCc1ccc(Nc2nc(=S)c3[nH]cnc3[nH]2)cc1 | > 100 µM |
| Cc1nc([C@H]2CC[C@H]3[C@@H]4CCC5=CC(=O)CC[C@]5(C)[C@H]4CC[C@]23C)cs1 | > 100 µM |

====

TGI overview
System: SK-MEL-5 melanoma
Test: NCI tumour cell line growth inhibition, 48 h

| chem smiles | TGI |
| --- | --- |
| Oc1ccccc1C=Nc1ccc(-c2nc3ccccc3[nH]2)cc1 | > 100 µM |
| Cc1cc(S(=O)(=O)/N=C(\[N-]S(=O)(=O)c2ccc(Cl)cc2)[n+]2ccc(N(C)C)cc2)c(S)cc1Cl | > 100 µM |
| COc1cc(Nc2ncc(F)c(Nc3ccc4c(n3)NC(=O)C(C)(C)O4)n2)cc(OC)c1OC | > 100 µM |

====

TGI overview
System: HS 578T breast
Assay: NCI tumour cell line growth inhibition, 48 h

| compound | tested system | unit symbol | reported relation | TGI |
| --- | --- | --- | --- | --- |
| [N-]=[N+]=Nc1c(C=O)c(=O)n(-c2ccccc2)c2ccccc12 | HS 578T breast | µM | = | 79.1 |
| CCn1cc(-c2ccnc3[nH]ccc23)c(-c2cccc(NC(=O)Nc3ccc(OCc4ccccc4)cc3)c2)n1 | HS 578T breast | µM | > | 25 |
| COc1ccc(C(=O)/C=C/c2cc3c(c(OC)c2)OCC(=O)N3)cc1 | HS 578T breast | µM | > | 100 |
| Cc1ccc2c(c1)C(=O)N1CCC[C@H]1C=N2 | HS 578T breast | µM | = | 31.5 |
| N#CC(C#N)=C(N)/C(C#N)=C/c1ccc2ccccc2n1 | HS 578T breast | µM | = | 65 |
| Cc1cc(-c2nc3ccccc3s2)ccc1N | HS 578T breast | µM | > | 100 |
| O=C(Nc1c(C(F)(F)F)cc(-c2ccccc2)[nH]c1=O)N1CCOCC1 | HS 578T breast | µM | > | 100 |
| COc1cc(C=C2C(C)=NN(c3cccc(Cl)c3)C23C(Cl)C(=O)N3c2nc3ccccc3s2)ccc1O (stereo not drawn) | HS 578T breast | µM | = | 43 |

====

System: TK-10 renal
Assay: NCI tumour cell line growth inhibition, 48 h
TGI overview

| molecule | TGI |
| --- | --- |
| Nc1ncc(Cl)c(NCC2(CO)CC(CCc3ccccc3)C2)n1 (stereo not given) | > 100 µM |
| N=c1c2c(=S)n(-c3ccccc3)c(=S)n(-c3ccccc3)c2nc(SCCCN2CCN(c3cccc(Cl)c3)CC2)n1-c1ccccc1 | > 100 µM |
| O=C(Nc1cccc(Cc2cccc(NC(=O)c3ccccc3)c2)c1)c1ccccc1 | > 100 µM |
| CC(C)(C)c1cc2c(O)c(c1)Cc1cc(C(C#N)(Cc3ccc4ccccc4c3)Cc3ccc4ccccc4c3)cc(c1O)Cc1cc(C(C)(C)C)cc(c1O)Cc1cc(C(C#N)(Cc3ccc4ccccc4c3)Cc3ccc4ccccc4c3)cc(c1O)C2 | > 100 µM |
| O=C(NNC(c1ccccc1)C(F)(F)F)c1ccncc1 (stereo not given) | > 100 µM |
| CC(C)CC(=O)Nc1n[nH]c2c1CN(C(=O)C1CCN(C)CC1)C2(C)C | > 10 µM |
| CCN1C[C@]2(C)CC[C@H](OC)C34C1C([C@H](OC(C)=O)[C@@H]32)[C@@]1(OC)C[C@H](OC)[C@H]2C[C@@H]4[C@@H]1[C@H]2O | > 100 µM |
| CN1CCCCC(C#N)(c2ccccc2)CC1 (stereo not given) | > 100 µM |
| O=C(O)CS | > 100 µM |
| Cc1ccc(C(=O)Nc2ccc(S(=O)(=O)O)c3cc(S(=O)(=O)O)cc(S(=O)(=O)O)c23)cc1NC(=S)Nc1cc(C(=O)Nc2ccc(S(=O)(=O)O)c3cc(S(=O)(=O)O)cc(S(=O)(=O)O)c23)ccc1C | > 75 µM |

====

TGI overview
Tested on: OVCAR-4 ovarian
Experiment: NCI tumour cell line growth inhibition, 48 h
property: TGI

| molecule | result |
| --- | --- |
| CCN(CC)CCN1C(=O)c2c(c(-c3ccccc3)c3ccccc3c2-c2ccccc2)C1=O | > 100 µM |
| COc1ccc(C(=O)C(c2ccc(OC)cc2)C2OC(=O)C(Cl)=C2Cl)cc1 (stereo not given) | > 100 µM |
| CC(=O)[O-].[Mn+3].[O-]c1ccccc1C=NCCN=Cc1ccccc1[O-] | > 100 µM |
| O=C1c2ccccc2NC1(c1ccccc1)c1c(-c2ccccc2)[nH]c2ccccc12 (stereo not given) | > 100 µM |
| CN(C)/N=C(/c1nc2ccc([N+](=O)[O-])cc2[nH]c1=O)C(O)c1ccco1 (stereo not given) | > 100 µM |
| CCOc1ccc(NC(=O)/C(=N\NC(C)(C)C)C2C(=O)Nc3ccccc3S2=O)cc1 (stereo not given) | > 100 µM |
| O=C(Cc1nc2ccccc2s1)C(=O)Nc1cccc(Cl)c1 | > 100 µM |
| CN(C)C/C=C/C(=O)Nc1cc2c(Nc3ccc(F)c(Cl)c3F)ncnc2cc1OCCOC(F)F | 10.7 µM |
| COC(=O)Nc1nc2ccc(C(=O)c3ccc(N(C)C4COC4)cc3)cc2[nH]1 | > 100 µM |
| CS(=O)(=O)c1c(N)c2nc(Cl)cn2c2nc3ccccc3nc12 | > 100 µM |
| CC(=O)O[C@@H]1[C@@H](O)C2=C3[C@]4(C)[C@@H]1C(C)(C)C(=O)C[C@@H]4[C@]3(O)[C@H](OC(C)=O)[C@@]1(C[C@@H]1C)C2=O | 43.9 µM |
| COc1cc(NC(C)=O)ccc1C(=O)NN1C(=O)C(Cl)C1c1ccco1 (stereo not given) | > 100 µM |
| COC(=O)c1cccc(N[C@@H]2c3cc4c(cc3C(c3cc(OC)c(O)c(OC)c3)[C@H]3C(=O)OCC32)OCO4)c1 (stereo not given in full) | > 100 µM |
| CN(C)c1ncc(-c2ccc(C(F)(F)F)cc2)c(NC2CCCCCC2)n1 | 56.6 µM |
| C[C@@H]1Cc2c([nH]c3ccccc23)[C@@H](c2c(F)cc(NC3CN(CCCF)C3)cc2F)N1CC(F)(F)CO | 21.9 µM |

====

Test system: SR leukemia
Assay: NCI tumour cell line growth inhibition, 48 h

| compound | TGI |
| --- | --- |
| Cc1oc(N)c(S(=O)(=O)c2ccc(Cl)cc2)c1C | > 100 µM |
| C[C@]12Cc3cnn(-c4ccc(F)cc4)c3NC1CC[C@@H]1C2CC[C@@]2(C)C1CC[C@@H]2O (stereo not given in full) | 12.8 µM |
| COc1cc(Nc2ncc(F)c(Nc3ccc4c(n3)NC(=O)C(C)(C)O4)n2)cc(OC)c1OC | > 100 µM |
| N#CC(=C1CCCCC1)c1nc2ccccc2o1 | > 100 µM |
| CN1CCN(c2cc(C(=O)Nc3cc4cc(-c5cnn(C)c5)ccc4cn3)ccn2)CC1 | 13.6 µM |
| N#CC(C#N)N=Nc1ccc(Br)cc1 | > 49.8 µM |
| CN(CC#N)C1CCCC[C@H]1O (stereo not given in full) | > 100 µM |
| Cc1nc(-c2ccccc2)cc2c1c(=O)oc1ccccc12 | > 100 µM |
| CCN(CC)CCCC(C)Nc1nc(C)cc(Nc2ccc3nc(C)cc(N)c3c2)n1 (stereo not given) | 22.8 µM |
| O=C(O)Cc1ccc(Oc2nc3ccccc3nc2C(=O)O)cc1 | > 100 µM |
| CN(CCO)c1nc(N)cc(=O)[nH]1 | > 100 µM |
| O=C(O)c1cc2ccccc2c(N=Nc2cc(C(F)(F)F)ccc2Cl)c1O | > 100 µM |
| Brc1c(C#CCC(c2ccccc2)(c2ccccc2)c2ccccc2)ccc(C#CCC(c2ccccc2)(c2ccccc2)c2ccccc2)c1Br | > 100 µM |
| CN1CCN(c2ccc(Nc3nc(N)c(C(=O)c4ccc5c(c4)OCCO5)s3)cc2)CC1 | 12.7 µM |
| NC(=O)NC(=O)c1cccc(CNc2ccc(C(=O)N[C@@H](CCC(=O)O)C(=O)O)cc2)n1 | > 100 µM |
| CCCCOC(=O)NC(Nc1cccc(C(F)(F)F)c1)(C(F)(F)F)C(F)(F)F | 60.4 µM |
| CCN(CC)CCCC(C)Nc1ccnc2ccc3nn(C)nc3c12 (stereo not given) | > 100 µM |
| O=C(Nc1c(C(F)(F)F)cc(-c2ccccc2)[nH]c1=O)N1CCOCC1 | > 100 µM |
| O=C(O)c1cc2ccccc2oc1=O | > 100 µM |
| O=C(O)CS | > 100 µM |
